target: UCP2 protein (Mus musculus); construct: lacking the untranslated regions 5′ and 3′ is obtained by enzymatic amplification; expressed in transfected cells; host or cells: Saccharomyces cerevisiae diploid W303, vector pYeDP-1/8-10; isolated mitochondria; assay: Respiration stimulation factor in mitochondria of recombinant yeast expressing UCP2; assay type: biochemical, mice; conditions: pH not stated
Sequence (P70406 whole entry): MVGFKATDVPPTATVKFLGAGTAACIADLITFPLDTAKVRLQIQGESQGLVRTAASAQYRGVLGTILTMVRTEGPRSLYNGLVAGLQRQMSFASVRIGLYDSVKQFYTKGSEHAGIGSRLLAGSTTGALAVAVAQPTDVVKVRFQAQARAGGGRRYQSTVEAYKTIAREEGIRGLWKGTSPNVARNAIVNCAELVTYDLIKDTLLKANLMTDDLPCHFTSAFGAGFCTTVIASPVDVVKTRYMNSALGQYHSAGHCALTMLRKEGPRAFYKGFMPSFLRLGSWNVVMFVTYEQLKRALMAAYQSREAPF
attribute_measured: activation of the activity of UCP2 protein

Request: Please give the measured activation of the activity of UCP2 protein for this compound: O=C(O)c1ccccc1O
Result: No activation

Request: I'd like to know its activation of the activity of UCP2 protein. The compound in question is CCCCC/C=C\C/C=C\C/C=C\C/C=C\CCCC(=O)O
Result: No activation

Request: So what's the measured activation of the activity of UCP2 protein for this one? CC1=CC(=O)CC(C)(C)C1(O)/C=C/C(C)=C\C(=O)O (centres unmarked) [abscissic acid]
Result: No activation

Request: I have this compound here, CC1=C(/C=C/C(C)=C/C=C/C(C)=C/CO)C(C)(C)CCC1 , and I need its recorded activation of the activity of UCP2 protein.
Result: No activation

Where do the numbers come from? From patent US20070015830A1.
